Target: MVITAIL(W1221A) (Human, UniProt Q9UM54-5 814-1253, W1221A)
Sequence (Q9UM54 other isoform, or with tags, fused parts or gaps W1221A | W1221A W1221A): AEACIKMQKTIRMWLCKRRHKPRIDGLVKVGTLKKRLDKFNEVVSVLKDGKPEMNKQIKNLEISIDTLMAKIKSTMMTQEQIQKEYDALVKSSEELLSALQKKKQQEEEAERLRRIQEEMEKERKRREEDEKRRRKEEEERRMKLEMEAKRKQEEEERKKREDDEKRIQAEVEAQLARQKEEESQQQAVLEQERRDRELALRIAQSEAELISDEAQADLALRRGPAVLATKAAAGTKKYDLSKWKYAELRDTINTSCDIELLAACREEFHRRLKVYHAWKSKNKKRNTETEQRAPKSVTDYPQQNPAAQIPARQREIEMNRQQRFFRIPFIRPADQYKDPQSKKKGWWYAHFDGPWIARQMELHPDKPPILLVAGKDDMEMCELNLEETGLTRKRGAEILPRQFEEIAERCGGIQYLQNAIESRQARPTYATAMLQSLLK
Assay: fluorescence anisotropy; FAM-DNA 50 nM; assay buffer, salt, pH and temperature not given in the material (duplex annealing in water or 50 mM Tris-HCl pH 7.5, 150 mM NaCl, 3 mM MgCl2)
Conditions: protein: recombinant; tags: His-tag (pET151), TEV-cleaved; label: 3' FAM on strand A; blunt
endpoint: Kd (nM)

> print(dat)
                                     binder  endpoint  value.unit  readout.value
1  ds40 (dsDNA) DNA 1: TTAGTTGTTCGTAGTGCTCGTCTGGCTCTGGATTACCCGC DNA 2: GCGGGTAATCCAGAGCCAGACGAGCACTACGAACAACTAA        Kd          nM            300
